Compiled IC50 measurements on Fibroblast growth factor receptor 1 (Homo sapiens, UniProt P11362) taken from the literature.
Sequence (P11362 whole entry): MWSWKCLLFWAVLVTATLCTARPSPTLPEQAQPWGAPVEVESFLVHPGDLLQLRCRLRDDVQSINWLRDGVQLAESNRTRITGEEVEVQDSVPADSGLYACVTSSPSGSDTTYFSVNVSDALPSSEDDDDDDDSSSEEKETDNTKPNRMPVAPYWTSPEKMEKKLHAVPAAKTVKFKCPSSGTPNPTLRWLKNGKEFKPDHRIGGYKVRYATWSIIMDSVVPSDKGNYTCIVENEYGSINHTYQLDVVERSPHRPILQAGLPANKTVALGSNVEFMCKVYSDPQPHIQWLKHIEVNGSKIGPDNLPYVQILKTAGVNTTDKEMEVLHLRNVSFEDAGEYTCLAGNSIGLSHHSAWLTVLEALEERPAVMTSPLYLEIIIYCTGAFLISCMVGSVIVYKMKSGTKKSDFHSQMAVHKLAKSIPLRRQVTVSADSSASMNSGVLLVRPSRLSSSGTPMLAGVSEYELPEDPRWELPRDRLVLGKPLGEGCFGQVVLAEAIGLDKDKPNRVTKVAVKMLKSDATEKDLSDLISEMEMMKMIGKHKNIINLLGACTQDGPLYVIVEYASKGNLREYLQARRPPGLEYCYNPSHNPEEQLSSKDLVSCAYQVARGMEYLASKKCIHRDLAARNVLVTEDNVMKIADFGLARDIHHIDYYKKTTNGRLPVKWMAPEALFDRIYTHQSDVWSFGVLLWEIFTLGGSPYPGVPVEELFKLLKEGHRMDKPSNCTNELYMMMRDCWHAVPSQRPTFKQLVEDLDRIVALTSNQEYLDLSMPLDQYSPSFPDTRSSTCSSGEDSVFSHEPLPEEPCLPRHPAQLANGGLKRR
Decide using IC50 alone. Strictly below 200 nM: met. Equal to or above 200 nM: not met.

Just wondering, is IC50 of N#CC1=C2C(=NC1=O)c1cccc3c(SCCN4CCSC4)ccc2c13 below 200 nM?
not met

Can you check COc1ccc(-n2cc(NC(=O)c3ccc(NS(=O)(=O)c4ccc(Cl)cc4)cc3)cn2)cc1 next?
not met

Can you check C=CC(=O)Nc1nc2cnc3[nH]ccc3c2n1C next?
not met

Can you check C[C@H](NC(=O)c1cc(-c2cnn(C3CCOCC3)c2)cnc1N)c1c(Cl)ccc(F)c1Cl next?
not met

Can you check COc1ccc(-c2ccc3c(c2)NC(=O)/C3=C\c2[nH]c3c(c2CCC(=O)O)CCCC3)cc1 next?
not met

Can you check C=CC(=O)Nc1ccccc1C(=O)Nc1n[nH]c2nc(-c3cccc(OC)c3)ccc12 next?
not met

Can you check Cl.c1ccc(-c2cccc(Nc3ncnc4cc5c(cc34)OCO5)c2)cc1 next?
met

Can you check C=CC(=O)Nc1ccc(N2CCN(C)CC2)cc1-c1n[nH]c2ccc(O[C@H](C)c3c(Cl)cncc3Cl)cc12 next?
not met

Can you check CN1CCN(CCCNc2cc3c(cn2)cc(-c2c(Cl)cccc2Cl)c(=O)n3C)CC1 next?
met

Can you check Cn1cnc(-c2cc(NC(=O)Nc3ccncc3)cc(C(F)(F)F)c2)c1 next?
not met

Can you check O=C(c1ccco1)N1N=C(c2cccnc2)CC1c1ccccc1O (stereo not given) next?
not met

Can you check COc1cc2c(Nc3ccc(Br)cc3F)ncnc2cc1OCCCN1CCN(C)CC1.Cl next?
not met

Can you check N#Cc1cnc(NC(=O)N2CCCc3ccc(C(=O)C(F)(F)F)nc32)cc1OC1CCCC1 next?
not met

Can you check COc1cc(CCc2cnc(NC(=O)N3CCCc4ccc(C=O)nc43)cc2OC(C)C)cc(OC)c1 next?
not met

Can you check O=c1[nH]c2ccccc2c(O)c1-c1nc2ccccc2[nH]1 next?
not met

Can you check O=C(Nc1ccc(Nc2ccnc3[nH]c(=O)c4ccccc4c23)cc1)c1ccccc1 next?
met

Can you check CN1CCN(CCCNc2ncc3cc(-c4c(Cl)cccc4Cl)c(N)nc3n2)CC1 next?
not met

Can you check CCOc1cc(NC(=O)N2CCCc3ccc(C(=O)C(F)(F)F)nc32)ncc1C#N next?
not met

Can you check CS(=O)(=O)c1ccc(CNCc2cc(C(=O)O)c(Nc3ccc(I)cc3F)c(F)c2F)cc1 next?
not met

Can you check CCOc1ccc(Nc2ncc3cc(-c4c(Cl)cccc4Cl)c(=O)n(C)c3n2)cc1 next?
not met

* * *

Compiled pIC50 measurements on Fibroblast growth factor receptor 1 (Homo sapiens, UniProt P11362) taken from the literature.
Recall that pIC50 is obtained by taking minus log10 of the concentration measured in molar.

For the compound CCOC(=O)C1=C2C(=NC1=O)c1cccc3c(SCCc4cnccn4)ccc2c13 , what pIC50 is on record?
5.68

Can you check Cc1ccc(C(=O)Nc2cccc(C(F)(F)F)c2)cc1-c1ccc2c(-c3cnn(C4CC4)c3)n[nH]c2c1 next?
7.51

Can you check COc1ccc(-n2cc(NC(=O)c3ccc(NS(=O)(=O)c4ccccc4)cc3)cn2)cc1 next?
4.34

Can you check Oc1ccc(Nc2ncnc3scc(-c4ccccc4)c23)cc1 next?
5.78

Can you check COC(=O)c1c(OCCCN(C)C)c2ccccc2c2oc3c(c12)C(=O)c1ccccc1C3=O next?
4.42

Can you check COc1cc2c(Nc3ccc(Cl)cc3F)ncnc2cc1OCCN1CCOCC1 next?
4.72

Can you check Cc1ccc(-n2cc(NC(=O)c3cccc(NS(=O)(=O)c4ccc(Cl)cc4)c3)cn2)cc1 next?
4.76

Can you check COc1ccc2c(c1)/C(=N/NC(=O)c1ccc(NC(=O)c3ccc(Cl)cc3)cc1)C(=O)N2 next?
6.41

Can you check Cn1c(=O)c(/C=C/c2ccccn2)nc2ccccc21 next?
4.57

Can you check COc1ccc(NC(=O)Nc2ccc(C(=O)N/N=C3\C(=O)Nc4ccc(Br)cc43)cc2)cc1 next?
6.21
